Entries and their pIC50 values follow.
- Test system: HCV replicon
- Protocol Details: HCV replicon luciferase reporter assay
- Assay type: cell-based
- Conditions: Hepatitis C virus, Table 5; read-out: IC50
pIC50: −log10 of the molar value.

Please review the following examples before continuing.
[[record]]
compound = "FC(F)(F)c1ccnc(NCCCNc2nsc3ccccc23)c1 [Entry 231]"
readout_label = "pIC50"
observed_value = "> 5.30"

[[record]]
compound = "COc1ccc(NS(=O)(=O)c2ccc(CNCCCNc3nsc4ccccc34)cc2)cc1 [Compound 258]"
readout_label = "pIC50"
observed_value = "> 5.30"

[[record]]
compound = "O=C(NCCCNc1nsc2ccccc12)c1cc2ccc([N+](=O)[O-])cc2o1 [Compound 439]"
readout_label = "pIC50"
observed_value = "> 5.30"

[[record]]
compound = "O=C(NCCNc1nsc2ccccc12)c1cccc(-c2cnc3ccccc3c2)c1 [Compound 375]"
readout_label = "pIC50"
observed_value = "> 5.30"

[[record]]
compound = "CC(C)Oc1ccccc1-c1ccc(C(=O)NCCNc2nsc3ccccc23)cc1 [Compound 377]"
readout_label = "pIC50"
observed_value = "> 5.30"


Dear colleague, please send me the reported pIC50 for COc1ccc(-c2ccc(S(=O)(=O)NCCCNc3nsc4ccccc34)cc2)cc1OC [Compound 332] when you can.
> 5.30

Recall and state the measured pIC50 for CCCNC(=O)Nc1ccc2oc(C(=O)NCCCNc3nsc4ccccc34)cc2c1 [Compound 455] .
> 5.30

Let me know recorded pIC50 for COc1ccccc1-c1cccc(C(=O)NCCCNc2nsc3ccccc23)c1 [Compound 384] , thanks.
> 5.30

Using the record for Cc1ccc(OC(C)C)c(-c2ccc(NC(=O)NCCCNc3nsc4ccccc34)cc2)c1 [Compound 392] , state its measured pIC50.
> 5.30

Tell me its pIC50 given N[C@H](C(=O)NCCNc1nsc2ccccc12)c1ccccc1 [Entry 74] as the entry.
< 5.30

Given Cc1cccnc1NCCCNc1nsc2ccccc12 [Compound 278] , respond with its pIC50.
> 5.30

Look up pIC50 of O=S(=O)(NCCCNc1nsc2ccccc12)c1ccc(-c2ccccc2C(F)(F)F)cc1 [Compound 335] and report it.
> 5.30

###

Recorded measurements of IC50, one per entry
- Tested on: HCV replicon
- Protocol Details: HCV replicon luciferase reporter assay
- Format: cell-based
- Conditions: Hepatitis C virus, Table 5; read-out: IC50

Please list IC50 recorded for the compound COc1ccc(-c2ccc(C(=O)NCCNc3nsc4ccccc34)cc2)cc1 [Compound 360]
< 5 µM

Report measured IC50; entry is O=C(O)COc1ccc(C(=O)NCCCNc2nsc3ccccc23)cc1 [Entry 238]
> 5 µM

State its IC50 for this compound: COc1ccc(NCCCNc2nsc3ccccc23)nc1 [Compound 282]
< 5 µM

Identify measured IC50 associated with COc1cccc(S(=O)(=O)NCCCNc2nsc3ccccc23)c1 [Entry 220]
< 5 µM

Give the value of IC50 reported for the following: COc1ccc(-c2ccc(C(=O)NCCCNc3nsc4ccc(-c5ccc(OC(C)C)cc5)cc34)cc2)cc1 [Compound 409]
< 5 µM

###

Below is a list of entries, each paired with its recorded pIC50 value.
- Test system: HCV replicon
- Protocol Details: HCV replicon luciferase reporter assay
- Format: cell-based
- Conditions: Hepatitis C virus, Table 5; read-out: IC50
pIC50: −log10 of the molar value.

[[record]]
molecule = "COc1ccc(-c2ccc(C(=O)NCCNc3nsc4ccccc34)cc2)cc1OC [Compound 361]"
observed_value = "> 5.30"

[[record]]
molecule = "COc1ccc(-c2ccc(CN(CCCNc3nsc4ccccc34)C(=O)CS(C)(=O)=O)cc2)cc1 [Compound 339]"
observed_value = "> 5.30"

[[record]]
molecule = "CCCCc1ccc(C(=O)NCCCNC2=NS(=O)(=O)c3ccccc32)cc1 [Compound 322]"
observed_value = "< 5.30"

[[record]]
molecule = "O=C(NCCNc1nsc2ccccc12)c1cccc(-c2cccc3cccnc23)c1 [Compound 374]"
observed_value = "> 5.30"

[[record]]
molecule = "COc1ccc(-c2ccc(CN(CCCNc3nsc4ccccc34)S(=O)(=O)c3ccccc3C(F)(F)F)cc2)cc1 [Compound 270]"
observed_value = "> 5.30"

[[record]]
molecule = "COc1cc(CNCCCNc2nsc3ccccc23)c(OCc2ccccc2)cc1OC [Compound 327]"
observed_value = "> 5.30"

[[record]]
molecule = "O=S(=O)(NCCCNc1nsc2ccccc12)c1c(Cl)cc(Br)cc1Cl [Compound 267]"
observed_value = "> 5.30"

[[record]]
molecule = "CCOc1cc(OCC)cc(C(=O)NCCCNc2nsc3ccccc23)c1 [Compound 391]"
observed_value = "> 5.30"


Note: attention shifts to another entry.
Identify the reported pIC50 for the following entry. COc1ccc(S(=O)(=O)NCCCNc2nsc3ccccc23)cc1 [Compound 251]
> 5.30
